- Method Description: Solubility of peptides in sodium acetate-imidazole buffer
- Assay type: physicochemical
- Set-up: key: Soluble: totally soluble; Cloudy: cloudy: no totally soluble
- Details: 0.2 wt.% in 10 mM sodium acetate - 10 mM imidazole buffer (pH 7); shaken 2 h at 50 °C and overnight at room temperature; visual
- Procedure: Emulsions were produced as reported in our previous work[31]. A total amount of 2 g of 5 wt.% fish oil-in-water emulsion stabilized with 0.2 wt.% potato peptides was produced. Peptides (0.2 wt.%) were dissolved in 10 mM sodium acetate – 10 mM imidazole buffer (pH 7). For that, the peptide solutions were shaken (100 rpm) for 2 h in water bath at 50 °C and overnight at room temperature to allow complete solubilization and rehydration of the peptides (when possible). […]
No end group written: not given here.
Experimental Endpoint: Solubility of peptides

Reference set, count: 10
{"Ordered Residues": "KYLMQVLQEKLGE [α-18]", "Obs Value": "Cloudy"}
{"Ordered Residues": "GIKGIIPAIILEFLEGQLQEVDNNKDAR [γ-1]", "Obs Value": "Soluble"}
{"Ordered Residues": "IPATILEFLEGQLQEVDNN [α-15]", "Obs Value": "Soluble"}
{"Ordered Residues": "ELDSRLSYRIISTFWGALGGDVYL [β-21]", "Obs Value": "Cloudy"}
{"Ordered Residues": "LNIQFNIPTPKLC [β-27]", "Obs Value": "Cloudy"}
{"Ordered Residues": "EALKRFAKLLSD [α-11]", "Obs Value": "Soluble"}
{"Ordered Residues": "DDNFCAKVGVVIQ [β-30]", "Obs Value": "Cloudy"}
{"Ordered Residues": "LGGDVYLGKSPNSDAPCP [β-31]", "Obs Value": "Soluble"}
{"Ordered Residues": "GIIPATILEFLEGQLQEVDNN [γ-48]", "Obs Value": "Soluble"}
{"Ordered Residues": "ELDSRLSYRIISTFWGALGGDVYLGKSPN [β-20]", "Obs Value": "Cloudy"}

Using the record for AKDIVPFYFEHGPHIFN [α-14] , state its measured Solubility of peptides.
Soluble

Query Solubility of peptides for DNFCAKVGVVIQNGKRR [γ-44]
Cloudy

Look up Solubility of peptides of VGVVIQNGKRR [γ-45] and report it.
Soluble

Input VHQNGKRRLALVKDNPLDVSFK [β-28] , output reported Solubility of peptides.
Soluble

Provide one value: measured Solubility of peptides of HQNGKRRLALV [γ-39]
Soluble

Report measured Solubility of peptides; entry is FCLKVGVIHQNGKRRLALVK [γ-49]
Soluble

Retrieve Solubility of peptides measured for ILEFLEGQLQEVDN [α-16] and print it.
Soluble

====

- Method Description: Solubility of peptides in sodium acetate-imidazole buffer
- Assay type: physicochemical
- Set-up: key: Soluble: totally soluble; Cloudy: cloudy: no totally soluble
- Details: 0.2 wt.% in 10 mM sodium acetate - 10 mM imidazole buffer (pH 7); shaken 2 h at 50 °C and overnight at room temperature; visual
No end group written: not given here.
Experimental Endpoint: Solubility of peptides

Use the examples below as a reference point.
{"Ordered Residues": "FIPLSTNIFEDQLLNIQFNIPT [β-23]", "Obs Value": "Cloudy"}
{"Ordered Residues": "SSDDQFCLKVGVV [γ-40]", "Obs Value": "Cloudy"}
{"Ordered Residues": "IGSSSHFGPHIFEGELLNIQFDIS [β-29]", "Obs Value": "Cloudy"}
{"Ordered Residues": "NPNSSYRIISI [γ-43]", "Obs Value": "Soluble"}
{"Ordered Residues": "TPNENNRPFAAAKDIV [γ-47]", "Obs Value": "Soluble"}

Annotate the sequence KYLMQVLQEKL [α-19] with its measured Solubility of peptides.
Soluble

Answer with reported Solubility of peptides of RDDNFCAKVGVVI [γ-35]
Cloudy
